- MEASURED_ON: human CYP2C19 (Homo sapiens)
- Sequence (P33261 whole entry): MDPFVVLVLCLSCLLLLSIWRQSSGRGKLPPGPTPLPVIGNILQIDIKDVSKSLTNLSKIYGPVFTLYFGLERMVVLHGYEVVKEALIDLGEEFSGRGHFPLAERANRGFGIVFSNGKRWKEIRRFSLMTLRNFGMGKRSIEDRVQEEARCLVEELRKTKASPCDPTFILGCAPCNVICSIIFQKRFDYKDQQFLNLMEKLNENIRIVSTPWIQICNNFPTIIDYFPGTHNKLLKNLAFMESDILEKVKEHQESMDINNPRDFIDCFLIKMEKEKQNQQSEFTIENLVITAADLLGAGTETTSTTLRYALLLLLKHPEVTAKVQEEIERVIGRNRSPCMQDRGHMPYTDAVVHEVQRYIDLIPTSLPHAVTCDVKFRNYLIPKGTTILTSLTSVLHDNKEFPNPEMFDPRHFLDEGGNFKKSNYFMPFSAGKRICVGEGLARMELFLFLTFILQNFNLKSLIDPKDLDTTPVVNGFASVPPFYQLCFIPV
- EXPERIMENTAL_PROTOCOL: biochemical
- EXPERIMENTAL_CONTEXT: CYP2C19 IC50
Field: pIC50. Provide a value for each of the compounds that follow.
One number for each entry, as −log10 of the molar value.

CCCN1C[C@H](CSC)C[C@@H]2c3cccc4[nH]cc(c34)C[C@H]21 [Pergolide methanesulfonate]; 5.07
c1ccc2c(c1)-c1cccc3c1c-2cc1ccccc13; 4.98
CC#C[C@]1(O)CC[C@H]2[C@@H]3C[C@H](C)C4=CC(=O)CC[C@]4(C)[C@H]3CC[C@@]21C; 5.03

Notebook: CN(Cc1ccc(C(C)(C)C)cc1)Cc1cccc2ccccc12 , pIC50 read as 5.00

----------
- MEASURED_ON: human CYP2D6 (Homo sapiens)
- Sequence (P10635 whole entry): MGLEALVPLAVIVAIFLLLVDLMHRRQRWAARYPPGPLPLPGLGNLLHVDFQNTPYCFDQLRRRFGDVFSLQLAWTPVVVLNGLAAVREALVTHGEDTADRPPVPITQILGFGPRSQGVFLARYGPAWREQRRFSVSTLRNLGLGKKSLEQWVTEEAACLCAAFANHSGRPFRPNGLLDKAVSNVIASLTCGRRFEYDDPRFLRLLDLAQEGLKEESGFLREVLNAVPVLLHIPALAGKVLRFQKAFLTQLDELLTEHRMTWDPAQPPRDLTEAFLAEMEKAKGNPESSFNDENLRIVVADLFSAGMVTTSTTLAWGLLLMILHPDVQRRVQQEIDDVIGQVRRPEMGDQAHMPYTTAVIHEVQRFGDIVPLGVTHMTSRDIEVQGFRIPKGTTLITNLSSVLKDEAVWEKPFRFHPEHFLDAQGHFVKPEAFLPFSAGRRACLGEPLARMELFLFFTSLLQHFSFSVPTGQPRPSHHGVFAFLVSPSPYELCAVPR
Rule: AC50 below 20 µM gives T, anything at or above gives F.

O=C(NCc1ncc(C(F)(F)F)cc1Cl)c1c(Cl)cccc1Cl [Fluopicolide]; T

Now look at this entry.
query: Is 20 µM strictly greater than the compound's reported AC50? compound: CCOC(=O)c1ccc(OC(=O)CCCCCN=C(N)N)cc1.CS(=O)(=O)O [Gabexate mesilate]
result: T

----------
- MEASURED_ON: human CYP1A2 (Homo sapiens, UniProt P05177)
- Sequence (P05177 whole entry): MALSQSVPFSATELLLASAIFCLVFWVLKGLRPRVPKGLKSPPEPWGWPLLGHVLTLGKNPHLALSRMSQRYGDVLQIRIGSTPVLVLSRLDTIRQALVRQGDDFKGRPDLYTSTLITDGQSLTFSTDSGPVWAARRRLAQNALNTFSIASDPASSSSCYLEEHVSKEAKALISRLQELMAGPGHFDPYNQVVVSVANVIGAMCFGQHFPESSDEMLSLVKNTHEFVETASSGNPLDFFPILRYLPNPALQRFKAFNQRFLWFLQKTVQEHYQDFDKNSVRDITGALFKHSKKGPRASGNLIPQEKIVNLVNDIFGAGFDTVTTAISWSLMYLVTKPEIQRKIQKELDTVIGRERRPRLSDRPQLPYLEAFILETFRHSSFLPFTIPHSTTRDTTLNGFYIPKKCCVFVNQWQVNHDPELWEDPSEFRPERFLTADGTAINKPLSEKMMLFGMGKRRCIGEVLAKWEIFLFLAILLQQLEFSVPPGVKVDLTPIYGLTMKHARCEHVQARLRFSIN
- EXPERIMENTAL_PROTOCOL: biochemical
- EXPERIMENTAL_CONTEXT: CYP1A2 IC50 (half-maximal inhibitory concentration)
Field: IC50. Provide a value for each of the compounds that follow.
Give bare numbers, in µM.

Example entries and their recorded answers appear below.
FC(F)C(F)(F)OCC(Cn1cncn1)c1ccc(Cl)cc1Cl (centres unmarked); 6.09
Clc1ccc(C2(Cn3cncn3)OCCO2)c(Cl)c1; 33.1
O=[N+]([O-])c1cc(C(F)(F)F)c(Cl)c([N+](=O)[O-])c1Nc1ncc(C(F)(F)F)cc1Cl; 35.6
CNC(=O)Oc1ccc2c(c1)[C@]1(C)CCN(C)[C@@H]1N2C; 55.4
O=C(NCCc1c[nH]c2ccccc12)c1cccnc1; 14.6

Okay, here is my list. What is IC50 for each of these?
1. CCOC(=O)[C@H](CCc1ccccc1)N[C@H]1CCc2ccccc2N(CC(=O)O)C1=O
2. O=C1C(Cl)C(CCl)CN1c1cccc(C(F)(F)F)c1 (centres unmarked)
3. CCOC(=O)C(O)(c1ccc(Cl)cc1)c1ccc(Cl)cc1 [Chlorobenzilate]

result:
14
1.04
44.5

----------
- MEASURED_ON: human CYP2C9 (Homo sapiens, UniProt P11712)
- Sequence (P11712 whole entry): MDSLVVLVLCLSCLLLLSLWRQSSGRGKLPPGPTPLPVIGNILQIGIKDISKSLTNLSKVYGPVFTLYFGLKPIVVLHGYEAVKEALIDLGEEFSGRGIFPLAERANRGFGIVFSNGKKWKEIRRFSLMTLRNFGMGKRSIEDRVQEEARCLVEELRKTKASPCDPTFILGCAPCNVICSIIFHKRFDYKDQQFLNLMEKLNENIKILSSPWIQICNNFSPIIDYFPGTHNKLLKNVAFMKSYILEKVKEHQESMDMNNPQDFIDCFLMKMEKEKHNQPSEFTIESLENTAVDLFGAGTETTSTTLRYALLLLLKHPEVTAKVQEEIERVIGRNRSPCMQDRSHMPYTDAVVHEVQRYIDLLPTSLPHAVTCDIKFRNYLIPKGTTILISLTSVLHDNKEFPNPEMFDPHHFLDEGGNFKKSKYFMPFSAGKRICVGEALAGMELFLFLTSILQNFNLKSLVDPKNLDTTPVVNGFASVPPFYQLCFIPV
- EXPERIMENTAL_PROTOCOL: biochemical
Where a name gives a salt, the structure may show the parent alone.
Rule: AC50 below 30 µM gives Met, anything at or above gives Not met.

CN(CC1(C)CCCO1)S(=O)(=O)c1ccc(Cl)c(S(N)(=O)=O)c1 (stereo not drawn) [Mefruside]; Met

query: Is 30 µM strictly greater than the molecule's reported AC50? molecule: CCCCCCCCCCCCN1CCCC1=O
result: Not met

query: Is 30 µM strictly greater than the molecule's reported AC50? molecule: COc1ccccc1OC(=O)Oc1ccccc1OC [Guaiacol carbonate]
result: Met

query: Is 30 µM strictly greater than the molecule's reported AC50? molecule: CCCCCNC(=N)N/N=C/c1c[nH]c2ccc(OC)cc12 [Tegaserod maleate]
result: Not met

query: Is 30 µM strictly greater than the molecule's reported AC50? molecule: O=C1OC(OC(=O)c2cccnc2Nc2cccc(C(F)(F)F)c2)c2ccccc21 (stereo not drawn) [Talniflumate]
result: Met

query: Is 30 µM strictly greater than the molecule's reported AC50? molecule: COc1cccc(O)c1
result: Not met

query: Is 30 µM strictly greater than the molecule's reported AC50? molecule: CCOC(=O)COC(=O)c1ccccc1C(=O)OCC [Ethyl phthalyl ethyl glycolate]
result: Not met

query: Is 30 µM strictly greater than the molecule's reported AC50? molecule: O=c1c2ccccc2oc2ccccc12
result: Not met

query: Is 30 µM strictly greater than the molecule's reported AC50? molecule: Oc1ccc(Sc2ccc(O)cc2)cc1
result: Met

query: Is 30 µM strictly greater than the molecule's reported AC50? molecule: CC(C)COC(=O)CCCCC(=O)OCC(C)C [Diisobutyl adipate]
result: Not met

query: Is 30 µM strictly greater than the molecule's reported AC50? molecule: O=C(O)c1cc(Cl)cc(Cl)c1O
result: Met
